Please go through the items and note down their IC50.
molecular target: Recombinant human HDAC2 (Homo sapiens); construct: Full length human HDAC2-FLAG was expressed in baculovirus infected Sf9 cells; FLAG (C); made in house; host or cells: Sf9 (baculovirus); assay: Human HDAC enzyme inhibitor Fluor-de-Lys assay, HDAC2; assay type: biochemical
Sequence (Q92769 whole entry): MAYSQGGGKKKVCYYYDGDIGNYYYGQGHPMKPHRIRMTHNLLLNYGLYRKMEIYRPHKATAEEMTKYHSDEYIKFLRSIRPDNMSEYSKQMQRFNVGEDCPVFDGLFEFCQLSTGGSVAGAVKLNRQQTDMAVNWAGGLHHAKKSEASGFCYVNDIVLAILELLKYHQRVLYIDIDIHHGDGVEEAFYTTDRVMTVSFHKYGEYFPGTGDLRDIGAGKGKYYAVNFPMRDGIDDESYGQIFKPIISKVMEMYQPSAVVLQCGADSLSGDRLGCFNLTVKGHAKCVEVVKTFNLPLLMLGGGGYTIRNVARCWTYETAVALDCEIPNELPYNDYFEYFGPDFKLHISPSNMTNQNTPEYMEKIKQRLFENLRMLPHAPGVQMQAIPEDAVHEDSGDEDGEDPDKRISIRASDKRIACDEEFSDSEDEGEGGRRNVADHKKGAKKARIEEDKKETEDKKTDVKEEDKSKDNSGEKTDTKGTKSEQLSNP
Give bare numbers, in nM.

// below: answered molecules
[[record]]
compoundstring = "CN1CCC2(CC1)C[C@@H]2C(=O)N[C@@H](CCCCCC(=O)CC1CC1)c1ncc(-c2ccc(F)cc2)[nH]1"
resultunit = "nM"
resultvalue = 63.8

[[record]]
compoundstring = "CCC(=O)CCCCC[C@H](NC(=O)CN1CCC2(CC1)CC2)c1ncc(-c2ccc3nn(C)cc3c2)[nH]1"
resultunit = "nM"
resultvalue = 18.4

[[record]]
compoundstring = "CCC(=O)CCCCC[C@H](NC(=O)[C@H]1CC12CCN(C)CC2)c1ncc(-c2cc(OC)c3ccccc3n2)[nH]1"
resultunit = "nM"
resultvalue = 16.9


In the following, a different molecule is considered.
Observed IC50, Recombinant human HDAC2 (Homo sapiens), `CCC(=O)CCCCC[C@H](NC(=O)[C@H]1CC12CCN(CC)CC2)c1ncc(-c2ccc3c(=O)n(CC)ccc3c2)o1` : 9.5

====

target: Recombinant human HDAC1 (Homo sapiens, UniProt Q13547); construct: FLAG (C); made in house; assay: Human HDAC enzyme inhibitor Fluor-de-Lys assay, HDAC1; type: biochemical
Sequence (Q13547 whole entry): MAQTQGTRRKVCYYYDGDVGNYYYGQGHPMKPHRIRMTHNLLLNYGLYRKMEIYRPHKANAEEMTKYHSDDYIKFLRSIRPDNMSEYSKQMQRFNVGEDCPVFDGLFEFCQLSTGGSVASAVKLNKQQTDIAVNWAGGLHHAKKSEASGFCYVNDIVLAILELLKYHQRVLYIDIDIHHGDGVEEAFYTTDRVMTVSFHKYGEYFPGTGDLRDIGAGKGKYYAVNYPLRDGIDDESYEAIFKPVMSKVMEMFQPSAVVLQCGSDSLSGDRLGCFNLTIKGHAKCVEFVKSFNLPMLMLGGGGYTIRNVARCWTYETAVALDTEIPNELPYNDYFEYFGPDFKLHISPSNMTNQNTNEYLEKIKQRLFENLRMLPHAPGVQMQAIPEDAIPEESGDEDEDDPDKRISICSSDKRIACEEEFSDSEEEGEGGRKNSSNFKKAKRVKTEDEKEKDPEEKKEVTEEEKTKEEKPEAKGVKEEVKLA
measuredAttribute: IC50 (nM)
Give bare numbers, in nM.

# batch size: 3; output IC50 per entry
1. CCC(=O)CCCCC[C@H](NC(=O)C1=NOC2(CCN(C)CC2)C1)c1ncc(-c2cc3ccc(C)nc3cc2F)o1 [Compound 221]
2. CCC(=O)CCCCC[C@H](NC(=O)[C@H]1CC12CCN(C)CC2)c1ncc(-c2ccc3nc(C(F)(F)F)ccc3c2)o1 [Compound 78]
3. CCC(=O)CCCCC[C@H](NC(=O)[C@H]1CC12CCN(C(C)C)CC2)c1ncc(-c2ccc3c(ccc(=O)n3C)c2)o1 [Compound 96]

1: 8.62; 2: 18.3; 3: 6.9

====

Target: HDAC6 (Homo sapiens, UniProt Q9UBN7)
Sequence (Q9UBN7 1-1215): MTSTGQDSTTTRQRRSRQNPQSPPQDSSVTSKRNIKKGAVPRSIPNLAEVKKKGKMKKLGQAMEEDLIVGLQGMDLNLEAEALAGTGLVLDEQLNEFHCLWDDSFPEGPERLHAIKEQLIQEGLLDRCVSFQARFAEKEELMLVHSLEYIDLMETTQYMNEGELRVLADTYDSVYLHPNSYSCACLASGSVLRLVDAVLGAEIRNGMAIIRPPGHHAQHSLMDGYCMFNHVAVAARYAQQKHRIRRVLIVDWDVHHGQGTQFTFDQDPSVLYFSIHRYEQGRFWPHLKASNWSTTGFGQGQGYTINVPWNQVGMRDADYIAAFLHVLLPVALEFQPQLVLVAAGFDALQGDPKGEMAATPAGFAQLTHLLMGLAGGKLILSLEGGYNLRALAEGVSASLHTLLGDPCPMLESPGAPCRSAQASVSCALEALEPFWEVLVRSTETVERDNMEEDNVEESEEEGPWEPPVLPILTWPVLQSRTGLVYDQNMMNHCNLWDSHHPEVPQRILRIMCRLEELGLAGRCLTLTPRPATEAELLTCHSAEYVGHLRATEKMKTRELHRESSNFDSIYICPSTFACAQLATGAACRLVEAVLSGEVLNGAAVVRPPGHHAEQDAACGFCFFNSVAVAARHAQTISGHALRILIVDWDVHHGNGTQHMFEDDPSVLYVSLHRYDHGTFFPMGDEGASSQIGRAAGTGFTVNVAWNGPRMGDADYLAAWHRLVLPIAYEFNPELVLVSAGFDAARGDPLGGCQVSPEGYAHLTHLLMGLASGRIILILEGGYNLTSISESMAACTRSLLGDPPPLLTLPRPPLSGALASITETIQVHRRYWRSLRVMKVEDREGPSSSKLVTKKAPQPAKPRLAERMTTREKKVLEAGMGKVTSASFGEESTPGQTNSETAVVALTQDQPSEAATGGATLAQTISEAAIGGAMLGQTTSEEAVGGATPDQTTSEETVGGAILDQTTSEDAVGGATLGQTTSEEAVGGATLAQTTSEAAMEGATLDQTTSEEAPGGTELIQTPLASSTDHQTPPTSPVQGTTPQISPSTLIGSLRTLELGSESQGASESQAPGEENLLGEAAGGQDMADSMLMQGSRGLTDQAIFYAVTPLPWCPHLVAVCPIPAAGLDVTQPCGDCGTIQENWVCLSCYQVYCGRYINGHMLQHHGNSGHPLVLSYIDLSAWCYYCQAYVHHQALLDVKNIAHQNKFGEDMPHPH
Assay: Human HDAC enzyme inhibitor Fluor-de-Lys assay, HDAC6
Format: biochemical
Settings: HDAC6, Fluor-de-Lys assay
Please provide measured IC50 for the entries that follow.
Numbers only, in µM.

[[record]]
compoundstring = "CCC(=O)CCCCC[C@H](NC(=O)C1CC2(C1)CN(CC)C2)c1ncc(-c2cc3ccccc3nc2OC)[nH]1"
resultvalue = 0.362

[[record]]
compoundstring = "CCC(=O)CCCCC[C@H](NC(=O)C1=NOC2(CCN(S(C)(=O)=O)CC2)C1)c1nnc(-c2cc3ccccc3nc2OC)o1"
resultvalue = 4.66


IC50 in this record for `CCC(=O)CCCCC[C@H](NC(=O)C1CC2(CCN(C)CC2)C1)c1ncc(-c2cc3ccccc3nc2OC)[nH]1` : 0.405
